Cited source: patent US8859616B2

Molecular target: hEP1 (Homo sapiens, UniProt P34995)
Sequence (P34995 1-402): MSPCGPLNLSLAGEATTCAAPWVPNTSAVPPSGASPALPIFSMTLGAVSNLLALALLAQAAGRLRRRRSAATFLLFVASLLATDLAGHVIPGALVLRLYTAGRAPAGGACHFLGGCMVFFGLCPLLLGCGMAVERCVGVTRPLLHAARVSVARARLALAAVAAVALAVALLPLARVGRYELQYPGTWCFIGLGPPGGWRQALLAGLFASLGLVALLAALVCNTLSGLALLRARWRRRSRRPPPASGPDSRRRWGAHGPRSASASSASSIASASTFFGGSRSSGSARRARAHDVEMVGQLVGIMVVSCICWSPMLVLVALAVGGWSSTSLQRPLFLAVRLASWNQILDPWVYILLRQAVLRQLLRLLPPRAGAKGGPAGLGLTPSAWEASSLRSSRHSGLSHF
Experiment: Prostanoid receptor functional activity measured by FLIPR
Assay type: cell-based
Details: n = 6 (#1), n = 3 (#2)
The reader will find reported EC50 values listed item by item below.
readout-kind: EC50 (nM)

* CCCCC[C@H](O)/C=C/[C@H]1[C@H](O)CC(=O)[C@@H]1SCCCSCC(=O)O | 304
* CCCCC[C@H](O)/C=C/[C@H]1[C@H](O)CC(=O)[C@@H]1SCCCSCC(=O)OC(C)C | 2260

* * *

Reported EC50 values for the following molecules.
Target: hEP2 (Homo sapiens, UniProt P43116)
Sequence (P43116 whole entry): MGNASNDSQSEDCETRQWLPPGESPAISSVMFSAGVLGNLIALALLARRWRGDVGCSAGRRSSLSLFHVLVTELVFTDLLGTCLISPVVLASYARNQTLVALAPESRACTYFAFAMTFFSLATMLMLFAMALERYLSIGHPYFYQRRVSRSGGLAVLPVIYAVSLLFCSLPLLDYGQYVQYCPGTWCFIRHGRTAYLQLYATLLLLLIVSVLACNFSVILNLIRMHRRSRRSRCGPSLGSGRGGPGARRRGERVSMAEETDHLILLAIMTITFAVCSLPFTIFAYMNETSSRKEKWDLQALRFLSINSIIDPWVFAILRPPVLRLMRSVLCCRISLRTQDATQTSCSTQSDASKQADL
Test: Prostanoid receptor functional activity measured by FLIPR
Format: cell-based
Details: n = 6 (#1), n = 3 (#2)
readout-kind: EC50

• CCCCC[C@H](O)/C=C/[C@H]1[C@H](O)CC(=O)[C@@H]1SCCCSCC(=O)OC(C)C = 1110 nM
• CCCCC[C@H](O)/C=C/[C@H]1[C@H](O)CC(=O)[C@@H]1SCCCSCC(=O)O = 380 nM

* * *

Biological target: hFP (Homo sapiens, UniProt P43088)
Sequence (P43088 whole entry): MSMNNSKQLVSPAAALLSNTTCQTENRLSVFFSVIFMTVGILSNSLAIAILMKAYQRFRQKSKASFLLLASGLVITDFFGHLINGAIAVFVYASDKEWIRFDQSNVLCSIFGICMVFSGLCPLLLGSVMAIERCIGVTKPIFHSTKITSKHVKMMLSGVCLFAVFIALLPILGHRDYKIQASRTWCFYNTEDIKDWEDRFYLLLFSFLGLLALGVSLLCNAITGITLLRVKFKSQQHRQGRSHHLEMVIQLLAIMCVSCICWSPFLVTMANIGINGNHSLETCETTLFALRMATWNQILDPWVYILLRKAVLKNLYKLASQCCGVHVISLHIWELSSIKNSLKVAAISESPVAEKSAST
Assay: Prostanoid receptor functional activity measured by FLIPR
Format: cell-based
Conditions: n = 6 (#1), n = 3 (#2)
# reported EC50; entries follow
readout-kind: EC50

* CCCCC[C@H](O)/C=C/[C@H]1[C@H](O)CC(=O)[C@@H]1SCCCSCC(=O)OC(C)C [#2] | > 10000 nM
* CCCCC[C@H](O)/C=C/[C@H]1[C@H](O)CC(=O)[C@@H]1SCCCSCC(=O)O [#1] | > 10000 nM

* * *

The reader will find reported EC50 values listed item by item below.
Molecular target: hTP (Homo sapiens, UniProt P21731)
Sequence (P21731 whole entry): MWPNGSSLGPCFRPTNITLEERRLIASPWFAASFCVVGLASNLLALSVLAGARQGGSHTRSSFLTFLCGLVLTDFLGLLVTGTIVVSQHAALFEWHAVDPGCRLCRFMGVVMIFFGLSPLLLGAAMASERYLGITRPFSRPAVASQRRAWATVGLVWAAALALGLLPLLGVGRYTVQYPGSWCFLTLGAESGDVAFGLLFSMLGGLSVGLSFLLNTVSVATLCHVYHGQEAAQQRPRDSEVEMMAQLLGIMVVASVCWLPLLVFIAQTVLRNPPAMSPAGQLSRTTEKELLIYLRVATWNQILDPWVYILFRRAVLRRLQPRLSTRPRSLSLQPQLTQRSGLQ
Assay: Prostanoid receptor functional activity measured by FLIPR
Assay type: cell-based
Settings: n = 6 (#1), n = 3 (#2)
readout-kind: EC50

- CCCCC[C@H](O)/C=C/[C@H]1[C@H](O)CC(=O)[C@@H]1SCCCSCC(=O)OC(C)C [#2]: 3290 nM
- CCCCC[C@H](O)/C=C/[C@H]1[C@H](O)CC(=O)[C@@H]1SCCCSCC(=O)O [#1]: 561 nM

* * *

EC50 values, listed per item
Target: hDP (Homo sapiens)
Sequence (Q13258 whole entry): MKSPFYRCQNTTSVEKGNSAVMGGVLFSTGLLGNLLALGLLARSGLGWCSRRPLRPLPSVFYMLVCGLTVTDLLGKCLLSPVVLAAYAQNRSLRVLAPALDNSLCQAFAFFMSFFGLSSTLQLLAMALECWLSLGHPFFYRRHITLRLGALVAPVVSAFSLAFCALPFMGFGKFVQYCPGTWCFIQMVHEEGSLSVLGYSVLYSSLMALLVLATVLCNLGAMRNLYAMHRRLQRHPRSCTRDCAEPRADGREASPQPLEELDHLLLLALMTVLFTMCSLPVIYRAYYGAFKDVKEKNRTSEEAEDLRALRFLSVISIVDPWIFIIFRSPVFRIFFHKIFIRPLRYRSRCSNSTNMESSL
Test: Prostanoid receptor functional activity measured by FLIPR
Type: cell-based
Conditions: n = 6 (#1), n = 3 (#2)
readout-kind: EC50

• CCCCC[C@H](O)/C=C/[C@H]1[C@H](O)CC(=O)[C@@H]1SCCCSCC(=O)OC(C)C = > 10000 nM
• CCCCC[C@H](O)/C=C/[C@H]1[C@H](O)CC(=O)[C@@H]1SCCCSCC(=O)O = > 10000 nM
